Would you mind telling me the reported EC50 of each entry?
- SYSTEM NAME: T1, Human IL-33 Flag®His (human)
- T1 construct: Mature IL-33 with C-terminal FLAG 10xHis tag, from E. coli; biotinylated via free cysteines where used biotinylated; also called Mature Human IL-33_FH; human IL-33 FH
- T1 chain: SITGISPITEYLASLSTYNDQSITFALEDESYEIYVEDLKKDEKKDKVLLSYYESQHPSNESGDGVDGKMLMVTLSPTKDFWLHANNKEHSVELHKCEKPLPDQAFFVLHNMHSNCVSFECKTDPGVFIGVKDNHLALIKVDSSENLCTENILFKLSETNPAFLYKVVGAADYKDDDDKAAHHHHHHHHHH
- PROCEDURE TEXT: ELISA, biotinylated antigen on streptavidin plate, anti-human IgG HRP
- Method: 96-well Greiner polypropylene plates (Greiner, 650201) were used for dilution preparation. Generally, each dilution was prepared in duplicate. […] Streptavidin plates (Thermo Scientific, AB-1226) were coated with biotinylated antigen at 0.5 μg/ml in PBS and incubated overnight at 4° C. […] The reaction was quenched with 50 μl/well 0.1M H2504 before reading on an EnVision™ plate reader, or similar equipment, at 450 nm. […]
Give the quantity in nM, number only.

## Input Would you kindly share the measured EC50 for IL330101 IgG (antibody, V domains shown, IgG1 or IgG1-TM; also called mAb IL330101; IL3300101) VH: EVQLLESGGGLVQPGGSLRLSCAASGFTFSSYAMSWVRQAPGKGLEWVSAISGSGGSTYYADSVKGRFTISRDNSKNTLYLQMNSLRAEDTAVYYCVRVVAGYFDSWGRGTLVTVSS VL: SYVLTQPPSVSVSPGQTARITCSGDALPKQYAHWYQQKPGQAPALVIYKDTERPSGIPERFSGSSSGTTVTLTISGVQAEDEADYYCQSADSSGASRVFGGGTKVTVL ?
## Output 1.19

## Input Also check IL330099 IgG (antibody, V domains shown, IgG1 or IgG1-TM) VH: QVQLQQSGAEVKKPGASVKVSCKASGYTFTSFYMNWVRQAPGQGLEWMGIISPRGGTTSYAQNFQGRVTMTRDTSTSTVYMELSGLRSDDTAVYYCATESFYYGSGTYSGDYYLYSGMADWGKGTLVTVSS VL: SSELTQDPAVSAALGQTVRITCQGDSLRSYYASWYQQKPGQAPVLVIYGKNDRPSGIPDRFSGSSSGNTASLTITGAQAEDEADYYCNSRDSSGNHVVFGGGTKLTVL
## Output 0.4

## Input Please answer likewise for IL330149 IgG (antibody, V domains shown, IgG1 or IgG1-TM; also called IL33149) VH: EVQLLESGGGLVQPGGSLRLSCAASGFTFSSYAMSWVRQAPGKGLEWVSAISGSGGSTYYADSVKGRFTISRDNSKNTLYLQMNSLRAEDTAVYYCVRTLAYSTSWFFDYWGRGTLVTVSS VL: SYELTQPPAVSVSPGQTARITCSGDALPKKYAYWYQQKSGQAPVLVIYEDAKRPSGIPERFSGSSSGTMATLTVSGAQVEDEADYYCYSTDSSGPVFGGGTKLTVL
## Output 0.23

## Input Record: IL330065 IgG (antibody, V domains shown, IgG1 or IgG1-TM (L234F, L235E, P331S); functional data combine both formats) VH: EVQLVQSGAEVKKPGTAVKISCKASGYTFTDYYIHWVQQAPGKGLEWMGLVDPEDGETKYAEKFQGRVSITADTSTDTAYMELRSLTSEDTAVYFCTMGWAQWGRGTLVTVSS VL: QSVLTQPPSASGTPGQRVTISCSGSSSNIGSNYVYWYQQVPGTAPKLVIYRDFQRPSGVPDRFSGSKSGNSASLVISGLRSEDEGEYVCAAWDDSLTGPRFGGGTKVTVL
## Output 0.65
